# study_target: human 20S proteasome, caspase-like (C-L) activity (Homo sapiens)
# experimental_details: C-L activity of SDS-activated human 20S proteasome (Z-LLE-AMC)
# applied_conditions: C-like Human 20S IC50, SDS-activated human 20S, pH 8.1, 37°C, Z-LLE-AMC 79 µM
Peptide text beside a SMILES is read from it.
Entries and their IC50 values follow.
Please give a number only; it is taken to be in µM.

These recorded examples may help you get a feel for the data.
[[record]]
compound = "CC[C@H](C)[C@@H]1NC(=O)[C@@H]2CCCN2C(=O)[C@H](CCCCN)NC(=O)[C@H](CCCCN)NC(=O)[C@H](CO)NC(=O)[C@H](Cc2ccc(O)cc2)NC(=O)[C@H]([C@@H](C)O)NC(=O)[C@@H](NC(=O)[C@H](CCCNC(=N)N)NC(=O)CN)CSSC[C@@H](C(=O)N[C@@H](Cc2ccccc2)C(=O)N2CCC[C@H]2C(=O)N[C@@H](CC(=O)O)C(=O)O)NC1=O [Analogue VI] (HELM PEPTIDE1{G.R.C.T.Y.S.K.K.P.I.C.F.P.D}$PEPTIDE1,PEPTIDE1,3:R3-11:R3$$$V2.0)"
obs_value = 4.02

[[record]]
compound = "CC[C@H](C)[C@@H]1NC(=O)[C@@H]2CCCN2C(=O)[C@H](CCCCN)NC(=O)[C@H](CC(C)C)NC(=O)[C@H](CO)NC(=O)[C@H](CCCNC(=N)N)NC(=O)[C@H]([C@@H](C)O)NC(=O)[C@@H](NC(=O)[C@H](CCCNC(=N)N)NC(=O)CN)CSSC[C@@H](C(=O)N[C@@H](Cc2ccccc2)C(=O)N2CCC[C@H]2C(=O)N[C@@H](CC(=O)O)C(=O)O)NC1=O [Analogue III] (HELM PEPTIDE1{G.R.C.T.R.S.L.K.P.I.C.F.P.D}$PEPTIDE1,PEPTIDE1,3:R3-11:R3$$$V2.0)"
obs_value = 2.42

[[record]]
compound = "CC[C@H](C)[C@@H]1NC(=O)[C@@H]2CCCN2C(=O)[C@@H]2CCCN2C(=O)[C@H]([C@@H](C)CC)NC(=O)[C@H](CO)NC(=O)[C@H](CCCCN)NC(=O)[C@H]([C@@H](C)O)NC(=O)[C@@H](NC(=O)[C@H](CCCNC(=N)N)NC(=O)CN)CSSC[C@@H](C(=O)N[C@@H](Cc2ccccc2)C(=O)N2CCC[C@H]2C(=O)N[C@@H](CC(=O)O)C(=O)O)NC1=O"
obs_value = 58.2

[[record]]
compound = "CC[C@H](C)[C@@H]1NC(=O)[C@@H]2CCCN2C(=O)[C@H](CCCCN)NC(=O)[C@H](CCCCN)NC(=O)[C@H](CO)NC(=O)[C@H](CCCCN)NC(=O)[C@H]([C@@H](C)O)NC(=O)[C@@H](NC(=O)[C@H](CCCNC(=N)N)NC(=O)CN)CSSC[C@@H](C(=O)N[C@@H](Cc2ccccc2)C(=O)N2CCC[C@H]2C(=O)N[C@@H](CC(=O)O)C(=O)O)NC1=O [Analogue X] (HELM PEPTIDE1{G.R.C.T.K.S.K.K.P.I.C.F.P.D}$PEPTIDE1,PEPTIDE1,3:R3-11:R3$$$V2.0)"
obs_value = 1.12

[[record]]
compound = "CC[C@H](C)[C@@H]1NC(=O)[C@@H]2CCCN2C(=O)[C@H](CCCCN)NC(=O)[C@H](CCCCN)NC(=O)[C@H](CO)NC(=O)[C@H](C)NC(=O)[C@H]([C@@H](C)O)NC(=O)[C@@H](NC(=O)[C@H](CCCNC(=N)N)NC(=O)CN)CSSC[C@@H](C(=O)N[C@@H](Cc2ccccc2)C(=O)N2CCC[C@H]2C(=O)N[C@@H](CC(=O)O)C(=O)O)NC1=O [Analogue VIII] (HELM PEPTIDE1{G.R.C.T.A.S.K.K.P.I.C.F.P.D}$PEPTIDE1,PEPTIDE1,3:R3-11:R3$$$V2.0)"
obs_value = 5.37


For the next question, use this compound.
For the compound CC[C@H](C)[C@@H]1NC(=O)[C@@H]2CCCN2C(=O)[C@H](CCCCN)NC(=O)[C@H](CC(C)C)NC(=O)[C@H](CO)NC(=O)[C@H](CCCCN)NC(=O)[C@H]([C@@H](C)O)NC(=O)[C@@H](NC(=O)[C@H](CCCNC(=N)N)NC(=O)CN)CSSC[C@@H](C(=O)N[C@@H](Cc2ccccc2)C(=O)N2CCC[C@H]2C(=O)N[C@@H](CC(=O)O)C(=O)O)NC1=O [Analogue II] (HELM PEPTIDE1{G.R.C.T.K.S.L.K.P.I.C.F.P.D}$PEPTIDE1,PEPTIDE1,3:R3-11:R3$$$V2.0) , give its reported IC50.
6.74
